- Measurement description: chemical genetic growth profiling, strain panel (AID 1159580);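 note: tested at 20 µM; growth read once vehicle control cultures reached saturation at 30 °C; 1 = growth at the plate median or of vehicle wells; lower values mean less growth of the strain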
- Protocol conditions: S. cerevisiae deletion strains, growth OD, locus YER110C, stronger effect = lower value
About 2,000 (36%) of roughly 5,500 compounds were called active. Another 18% or so got no clear call; they are omitted. The list shows a part of the results.
Reported property: normalized growth

>>> endpoint_value("COC(=O)CCC(C)C1CCC2C3CC[C@@H]4C[C@H](O)CC[C@]4(C)C3C[C@H](O)[C@]12C (stereo not given in full)")
1.02
>>> endpoint_value("CC1=C2[C@H]3OC(=O)[C@@H](C)[C@@H]3CC[C@@]2(C)C=CC1=O")
1.02
>>> endpoint_value("C=C1C2CC[C@@]3(C)[C@H](c4ccoc4)OC(=O)C[C@]13O[C@H]1CC(=O)C(C)(C)C(CC(=O)OC)[C@@]21C (stereo not given in full)")
1.01
>>> endpoint_value("CC(CCC(=O)O)[C@H]1CCC2C3CC[C@@H]4CCCC[C@]4(C)C3CC[C@@]21C (stereo not given in full)")
0.986
>>> endpoint_value("CC(CCC(=O)O)[C@H]1CCC2C3CC[C@@H]4C[C@H](O)CC[C@]4(C)C3C[C@H](O)[C@@]21C (stereo not given in full)")
0.982
